# System: CAKI-1 renal
# Run description: NCI tumour cell line growth inhibition, 48 h
I'd be grateful if you could share measured GI50 for these entries.

Prompt: Could you share what GI50 was measured for C=C(CC(=O)O)C(=O)O (tested in a mixture with another compound) , tested on CAKI-1 renal?
Completion: > 50 µg/mL

Prompt: For Cc1[nH]nc2c1N=C(c1ccccc1F)c1cc(C(N)=O)ccc1N2 then?
Completion: 3830 nM

Prompt: For O=C1C(=O)c2ccccc2C(O)=C1CCCc1ccc(C2CCCCCC2)cc1 then?
Completion: 432 nM

* * *

# Test system: RPMI-8226 leukemia
# Run description: NCI tumour cell line growth inhibition, 48 h
Where a SMILES comes first, the peptide text is derived from it.
Metric: TGI

Prompt: Return reported TGI; argument: O=C(CC1(O)C(=O)Nc2ccccc21)c1ccc(O)cc1 (stereo not given)
Completion: > 100 µM

Prompt: For CCCCCCCCCCCCOc1ccc(/C=C/C2=[N+](CCCl)CCO2)cc1 then?
Completion: > 100 µM

Prompt: For COc1ccc(/C=C2\Sc3nnc(CNc4ccc(Cl)cc4)n3N=C2c2cc(F)c(Cl)cc2Cl)cc1OC then?
Completion: 42.2 µM

Prompt: For O=[N+]([O-])/C(C(Cl)=C(Cl)Cl)=C(\Nc1ccccc1)n1nnc2ccccc21 then?
Completion: 93 µM

Prompt: For CC(C)CC(NC(=O)C(Cc1ccccc1)NC(=O)C(Cc1c[nH]c2ccccc12)NC(=O)CNC(=O)C(N)Cc1ccc(O)cc1)C(=O)O (stereo not given) (H-YGWFL-OH; configuration not given here) then?
Completion: 57.4 µM

Prompt: For CCOC(=O)c1oc2ccc([N+](=O)[O-])c3c2c1CCC3 then?
Completion: > 100 µM

Prompt: For Cc1cc2nc3cc(C)c(N)cc3[n+](-c3ccccc3)c2cc1N then?
Completion: > 100 µM

Prompt: For Fc1cccc(Cl)c1C1SCc2nc3cc4ccccc4cc3n21 (stereo not given) then?
Completion: > 100 µM

Prompt: For CC(=O)C(CN(C)C)C(c1ccccc1)c1c(O)c2ccccc2oc1=O (stereo not given) then?
Completion: > 100 µM

Prompt: For CCN(CC)CCCNc1nc(=O)[nH]c(C)c1C(=O)Nc1ccc2c(c1)c1ccccc1n2CC then?
Completion: > 100 µM

Prompt: For Cc1ccn2c(CCc3nnc4cc(C)ccn34)nnc2c1 then?
Completion: > 100 µM

Prompt: For NCCCCC(=O)c1cccnc1 then?
Completion: > 100 µM

Prompt: For CCOC(=O)[C@H]1Nc2ccc([N+](=O)[O-])cc2C2c3ccccc3CC21 (stereo not given in full) then?
Completion: > 100 µM

Prompt: For COc1cc(-c2n/c(=C\c3c(O)[nH]c4cc(Cl)ccc34)cc3c2=Nc2ccccc2-3)cc(OC)c1OC then?
Completion: > 100 µM

Prompt: For Cc1nc2ccc(NC3OC(CO)C(O)C(O)C3O)cc2c(=O)n1-c1ccccc1 (stereo not given) then?
Completion: > 100 µM

Prompt: For CC(=O)[CH-]C(=O)c1ccccc1.CC(=O)[CH-]C(=O)c1ccccc1.Cl.[O-]c1ccccn1.[O-]c1ccccn1.[Ti+4] then?
Completion: > 100 µM

Prompt: For COC(=O)c1c[nH]c2c1-c1cc(C(=O)OCc3ccccc3)n(S(=O)(=O)c3ccc(C)cc3)c1C(=O)C2=O then?
Completion: 2.83 µM

Prompt: For CC(CNCCCNCCNCCCNCO)[N+](=O)[O-] (stereo not given) then?
Completion: 35 µM

Prompt: For C/C=C/[C@H]1O[C@@H]2C(=C[C@H]1O)C(=O)O[C@H]2C then?
Completion: 8.85 µM

Prompt: For O=c1c2cc(Cl)ccc2[nH]c2cc(O)cc(O)c12 then?
Completion: > 10 µM

Prompt: For CC(C)(C)c1cc(OCc2nnc3sc(=S)[nH]n23)c(Cl)cc1OCc1nnc2sc(=S)[nH]n12 then?
Completion: > 100 µM

Prompt: For Cc1cnc2c(c1)C(=O)C1=C(OC(C)(C)CC1O)C2=O (stereo not given) then?
Completion: 60.6 µM

Prompt: For COc1cc2ncnc(Nc3ccc4c(cnn4Cc4ccccc4)c3)c2cc1OC then?
Completion: > 25 µM

Prompt: For N#Cc1nc(-c2ccccn2)oc1N then?
Completion: > 100 µM

Prompt: For CCCCNC(=O)Oc1ccc(/C(=C(/C)Cc2ccc(OC)cc2)c2ccc(OCCN3CCCC3)cc2)cc1 then?
Completion: 4.85 µM

Prompt: For COc1ccc(N=Nc2c(C)c(C#N)c(=S)n(C3OC(CO)C(O)C(O)C3O)c2C)cc1 (stereo not given) then?
Completion: > 100 µM

Prompt: For C[C@]12CC[C@H]3[C@@H](C[C@@H]4SC(Nc5ccccc5)=N[C@@]45CC(O)CC[C@]35C)[C@@H]1CCC2O (stereo not given in full) then?
Completion: 2.47 µM

Prompt: For O=S(=O)(c1ccccc1)n1cc(C[P+](c2ccccc2)(c2ccccc2)c2ccccc2)c2ccccc21 then?
Completion: 18.8 µM

Prompt: For COc1cc([C@@]23OC[C@@H]4[C@@H](OC[C@@H]42)c2cc4c(cc23)OCO4)cc(OC)c1OC then?
Completion: > 77.1 µM

Prompt: For O=c1oc2ccc(Cl)cc2cc1-c1cn2ccccc2n1 then?
Completion: > 100 µM

Prompt: For COc1ccc(/C=C/C(=O)CC(=O)/C=C/c2ccc(OC)cc2)cc1 then?
Completion: > 100 µM

Prompt: For CCCCNC(=O)c1cc(NCc2cc(O)ccc2O)ccc1O then?
Completion: 7.85 µM

Prompt: For CC1(C)C(=O)/C=C\C(=O)C(C)(C)C(=O)/C=C\C(=O)C(C)(C)C(=O)/C=C\C(=O)C(C)(C)C(=O)/C=C\C1=O then?
Completion: 24.2 µM

Prompt: For COc1c(-c2ccc(O)c(O)c2)oc2c(O)c(O)cc(O)c2c1=O then?
Completion: > 100 µM

Prompt: For Clc1ccc2nc(-c3ccccc3)nc(Cl)c2c1 then?
Completion: > 100 µM

Prompt: For CC1(C)OCC([C@H]2CC23SCCCS3)O1 (stereo not given in full) then?
Completion: > 100 µM

Prompt: For C=C(CC(=O)O)C(=O)O (tested in a mixture with another compound) then?
Completion: > 50 µg/mL

Prompt: For Cc1ccc(N2CCN(CCC(=O)O)CC2)cc1 then?
Completion: > 100 µM

Prompt: For COc1cc(C2C3=C(COC3=O)Nc3c2ccc2c3CCCC2)cc2c1OCO2 (stereo not given) then?
Completion: 75.3 µM

Prompt: For C[CH2][Ge]([CH2]C)([CH2]C)[O]C(=O)CCC(=O)[O][Ge]([CH2]C)([CH2]C)[CH2]C then?
Completion: > 100 µM

Values compiled from PubChem BioAssay (NCI).
